Assay: Tissue distribution study of boron (boron neutron capture therapy)
Assay type: in vivo, BALB/c mice
Details: mouse, blood, ip, 40 mg/kg, 1 hr post injection; single saline i.p. injection, 40 μg boron per gram body weight; read-out: Boron uptake, blood

- Compound: "CCNC(=O)[BH2-][NH2+]C [MeNH2.BH2 C(O)NHEt, Methylamine-(ethylcarbamoyl)borane]"
  concentration at 1 h: "54800 ng/g"

* * *

Test: Tissue distribution study of boron (boron neutron capture therapy)
Assay type: in vivo, BALB/c mice
Conditions: mouse, tumor, ip, 40 mg/kg, 12 hr post injection; single saline i.p. injection, 40 μg boron per gram body weight; read-out: Boron uptake, tumor
Experimental: In a tissue distribution study relating to treatment of tumor tissue in an animal by boron neutron capture therapy, a representative compound of this invention MeNH2.BH2 C(O)NHEt was administered in a single saline intraperitoneal injection sufficient to provide 40 μg boron per gram body weight to BALB/c mice carrying Harding-Passey melanorna.

- Molecule: "CCNC(=O)[BH2-][NH2+]C [MeNH2.BH2 C(O)NHEt, Methylamine-(ethylcarbamoyl)borane]"
  Output Unit: "ng/g"
  concentration at 12 h: 3800

* * *

Assay: Tissue distribution study of boron (boron neutron capture therapy)
Format: in vivo, BALB/c mice
Conditions: mouse, tumor, ip, 40 mg/kg, 1 hr post injection; single saline i.p. injection, 40 μg boron per gram body weight; read-out: Boron uptake, tumor

- Molecule: "CCNC(=O)[BH2-][NH2+]C [MeNH2.BH2 C(O)NHEt, Methylamine-(ethylcarbamoyl)borane]"
  concentration at 1 h, ng/g: 51300

* * *

Assay: Tissue distribution study of boron (boron neutron capture therapy)
Type: in vivo, BALB/c mice
Conditions: mouse, brain, ip, 40 mg/kg, 1 hr post injection; single saline i.p. injection, 40 μg boron per gram body weight; read-out: Boron uptake, brain
Parameter Measured: concentration at 1 h

- Compound: "CCNC(=O)[BH2-][NH2+]C [MeNH2.BH2 C(O)NHEt, Methylamine-(ethylcarbamoyl)borane]"
  Observed Result: "45300 ng/g"

Data credit: patent US4587359A
